Data origin: the supplement of paper PMC3334620

Biological target: Gcr1 (UniProt P07261)
Sequence: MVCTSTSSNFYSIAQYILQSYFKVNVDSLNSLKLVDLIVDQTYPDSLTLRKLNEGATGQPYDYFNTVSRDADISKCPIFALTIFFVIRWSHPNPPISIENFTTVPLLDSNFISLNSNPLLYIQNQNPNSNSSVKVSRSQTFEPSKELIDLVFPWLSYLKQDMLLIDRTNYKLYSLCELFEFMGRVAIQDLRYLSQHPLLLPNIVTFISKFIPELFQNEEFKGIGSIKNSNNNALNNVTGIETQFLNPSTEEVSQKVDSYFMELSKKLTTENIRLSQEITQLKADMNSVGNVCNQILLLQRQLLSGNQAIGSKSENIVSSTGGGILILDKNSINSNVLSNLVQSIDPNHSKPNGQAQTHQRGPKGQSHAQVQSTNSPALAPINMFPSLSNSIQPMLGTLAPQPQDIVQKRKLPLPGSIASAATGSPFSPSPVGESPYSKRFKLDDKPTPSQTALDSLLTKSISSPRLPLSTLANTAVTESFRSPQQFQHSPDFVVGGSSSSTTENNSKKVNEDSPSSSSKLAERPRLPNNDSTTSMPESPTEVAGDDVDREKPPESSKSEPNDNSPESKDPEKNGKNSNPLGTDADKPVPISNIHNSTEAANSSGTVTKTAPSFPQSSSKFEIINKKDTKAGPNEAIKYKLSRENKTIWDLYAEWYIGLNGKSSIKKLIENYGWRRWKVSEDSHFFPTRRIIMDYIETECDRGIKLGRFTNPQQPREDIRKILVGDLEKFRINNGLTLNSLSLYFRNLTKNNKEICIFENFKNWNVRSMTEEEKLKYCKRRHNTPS
Assay: PBM E-score (8-mer binding enrichment) (E-score (-0.5 to 0.5)); higher = stronger / more preferred TF binding
Conditions: protein concentration: 100 nM; construct: GST-full length
Over roughly 33,000 sequences, “E-score (-0.5 to 0.5)” has its median near -0.011; the highest 2% begin near 0.28. What follows is part of a selection rich in the highest values, with near analogues and random picks from the rest.
Readout Name: PBM E-score
Kindly provide the number alone.

Query string: Kindly indicate its recorded PBM E-score. Item: `AGAAGTTA`
Result string: 0.0491

Query string: Kindly indicate its recorded PBM E-score. Item: `AGAAGCTC`
Result string: 0.273

Query string: Kindly indicate its recorded PBM E-score. Item: `ATCTATGA`
Result string: -0.0683

Query string: Kindly indicate its recorded PBM E-score. Item: `CGAAGCTA`
Result string: 0.198

Query string: Kindly indicate its recorded PBM E-score. Item: `ATAATGGG`
Result string: 0.326

Query string: Kindly indicate its recorded PBM E-score. Item: `CGGAAGCC`
Result string: 0.451

Query string: Kindly indicate its recorded PBM E-score. Item: `AGAAGCTG`
Result string: 0.348

Query string: Kindly indicate its recorded PBM E-score. Item: `ATAAGCTG`
Result string: 0.15
